target: CCR2 (Homo sapiens); construct: Membranes were prepared from THP-1 cells; endogenous in cells; host or cells: THP-1 (human acute monocytic leukaemia cells), membrane preparation; test: CCR2 receptor membrane binding assay ([125I]MCP-1, THP-1 cell membranes, SPA beads); settings: THP-1 membranes, [125I]MCP-1, bound radioactivity after 8 h; read-out: hKi [nM](CCR2)
Measured Ki by item
recorded.metric: Ki

sample.smiles | experimental.system | observed.value
Cc1c(Nc2ccc(Cl)c(Cl)c2)nc(CF)nc1C(=O)N1CCC(N2CCC(N(C)S(C)(=O)=O)CC2)CC1 | CCR2 (Homo sapiens) | 2 nM
CO[C@H]1COCC[C@H]1NC1CCN(C(=O)c2nc(-c3cc(C)on3)nc(NC[C@H]3CCC[C@@H](c4ccc(C(F)(F)F)cc4)O3)c2C)CC1 | CCR2 (Homo sapiens) | 1 nM
Cc1c(Nc2ccc(Cl)c(Cl)c2)nc(CF)nc1C(=O)N1CCC(N[C@@H]2CCOC[C@@H]2F)CC1 | CCR2 (Homo sapiens) | 8 nM
CO[C@H]1COCC[C@H]1NC1CCN(C(=O)c2cc(NC[C@H]3CCC[C@@H](c4ccc(C)cc4)O3)nc(CF)n2)CC1 | CCR2 (Homo sapiens) | 5 nM
CO[C@@H]1COCC[C@@H]1NC1CCN(C(=O)c2cc(NC[C@H]3CCC[C@@H](c4ccc(C)cc4)O3)nc(CF)n2)CC1 | CCR2 (Homo sapiens) | 3 nM
Cc1c(C(=O)N2CCC(N[C@H]3CCOC[C@H]3F)CC2)nc(C2CCOCC2)nc1N1CCc2ccc(C(F)(F)F)cc2C1 | CCR2 (Homo sapiens) | 5 nM

----------
Catalogue of Ki readings, one per entry.
molecular target: CCR2 (Homo sapiens, UniProt P41597); construct: Membranes were prepared from THP-1 cells; endogenous in cells; host or cells: THP-1 (human acute monocytic leukaemia cells), membrane preparation; test: CCR2 receptor membrane binding assay ([125I]MCP-1, THP-1 cell membranes, SPA beads); details: THP-1 membranes, [125I]MCP-1, bound radioactivity after 8 h; read-out: hKi [nM](CCR2)
Sequence (P41597 1-360 isoform P41597-2): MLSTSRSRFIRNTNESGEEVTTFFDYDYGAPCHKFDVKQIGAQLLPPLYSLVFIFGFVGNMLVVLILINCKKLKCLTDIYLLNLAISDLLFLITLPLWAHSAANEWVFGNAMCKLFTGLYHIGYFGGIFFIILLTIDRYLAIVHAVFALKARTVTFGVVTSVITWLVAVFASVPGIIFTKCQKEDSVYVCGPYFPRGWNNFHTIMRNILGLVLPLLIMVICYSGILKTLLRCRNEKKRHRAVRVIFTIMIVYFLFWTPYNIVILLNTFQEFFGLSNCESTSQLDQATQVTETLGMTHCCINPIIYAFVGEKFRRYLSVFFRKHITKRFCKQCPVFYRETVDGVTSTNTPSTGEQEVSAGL

sample.smiles | Ki [nM]
CO[C@@H]1COCC[C@@H]1NC1CCN(C(=O)c2nc(C3CCOCC3)nc(N3CCc4ccc(C(F)(F)F)cc4C3)c2C)CC1 | 0.6
CO[C@H]1COCC[C@H]1NC1CCN(C(=O)c2nc(CF)nc(N3CCc4ccc(C(F)(F)F)cc4C3)c2C)CC1 | 5
CO[C@@H]1COCC[C@@H]1NC1CCN(C(=O)c2nc(C3CCOCC3)nc(N3CCc4cc(C(F)(F)F)ccc4C3)c2C)CC1 | 2
CO[C@H]1COCC[C@H]1NC1CCN(C(=O)c2nc(C3CCOCC3)nc(N3CCc4cc(C(F)(F)F)ccc4C3)c2C)CC1 | 4
CO[C@H]1COCC[C@H]1NC1CCN(C(=O)c2nc(C(F)F)nc(N3CCc4ccc(C(F)(F)F)cc4C3)c2C)CC1 | 4
